Taken from ChEMBL document CHEMBL1201862.

Test system: TK-10
Test: NCI tumour cell line growth inhibition, 48 h
Active and inactive are the calls of the source. No stated cut-off is given here; in the data, active = GI50 up to about 1.1 µM and inactive = higher.
// one of t = active, f = inactive, no free text

Consider the following illustrative entries.
q: What did this assay record as the result for COc1cc2c(c(OC)c1OC)-c1ccc(SC)c(=O)cc1C(NC(=O)c1ccccc1)CC2 (stereo not drawn) ?
a: t

q: Another compound: CC1OC(OC2C(O[C@@H]3C[C@@H]4CC[C@@H]5[C@H](CC[C@]6(C)C7C(C[C@@H]56)O[C@]5(CC[C@@H](C)CO5)[C@H]7C)[C@@]4(C)C[C@H]3O)OC(CO)C(O)C2O)C(O)C(O)C1O (stereo partly drawn)
a: f

q: Another compound: O=S(=O)(c1ccccc1)n1c(C(O)c2ccccc2)cc2ccccc21 (stereo not drawn)
a: f

q: Another compound: CCCCn1c(C)c(C)c2c1NN=C(C#N)S2(=O)=O
a: f

q: Another compound: CC(C)c1ccccc1NC(=O)/C(Cl)=C1/Sc2ccccc2NC1=O
a: f

q: Another compound: COc1cc(C2c3cc4c(cc3OC3(O)COC(=O)C23)OCO4)cc(OC)c1OC (stereo not drawn)
a: f

***
q: What did this assay record as the result for O=C(COc1ccc(OCC(=O)N/N=C/c2ccc(-c3ccc(Cl)cc3Cl)o2)c(Cl)c1)N/N=C/c1ccc(-c2ccc(Cl)cc2Cl)o1 ?
a: f

q: Another compound: C=C1c2ccccc2C(=O)c2c1c1c(C(=O)OC)c(O)ccc1n2Cc1ccccc1
a: t

* * *

System: U-251
Assay: NCI tumour cell line growth inhibition, 48 h
Active and inactive are the calls of the source. Cut-off read from the data, not from the text of the source: active = GI50 up to about 1.1 µM and inactive = higher.
Entries and their GI50 values follow.

Below, 6 compounds whose answers are already recorded.
q: Which GI50 is reported for this compound? CC1(C)CCCCCC(O)C(O)CCC(C)(C)C1=O (stereo unspecified)
a: > 100 µM (inactive)

q: Another compound: CCCCCCCC/C=C\CCCCCCCC(=O)OC[C@]1(CO)CCC(=O)O1
a: > 100 µM (inactive)

q: Another compound: COc1cc2c(NCCCCCO)ncnc2c(OC)c1OC
a: > 100 µM (inactive)

q: Another compound: C#CCSc1cnc2ccccc2c1Sc1c[nH]c2ccccc2c1=O
a: 15 µM (inactive)

q: Another compound: Cc1cc(=O)nc(Sc2ccc([N+](=O)[O-])cc2[N+](=O)[O-])[nH]1
a: 20.7 µM (inactive)

q: Another compound: CN1CCCCC1CCN1c2ccccc2Sc2ccc([S+](C)[O-])cc21 (stereo unspecified)
a: > 100 µM (inactive)

***
q: Which GI50 is reported for this compound? CSC1=C(C(=O)Nc2ccc(Cl)cc2)C(N)=NC1=O
a: > 100 µM (inactive)

q: Another compound: O=C1N/C(=N/N=C\C(O)C(O)C(O)C(O)CO)N/C1=C\c1ccc(Cl)cc1 (stereo unspecified)
a: 2.15 µM (inactive)

q: Another compound: Nc1ncc(CN2CCCC2)c(-c2ccccc2O)n1
a: > 750 µM (inactive)

q: Another compound: O=C(N/N=C/c1ccc2c(c1)CCC2)c1ccccc1O
a: 17.7 µM (inactive)

q: Another compound: COc1ccccc1C1SCC(=O)N1c1ccc(-n2c(-c3ccccc3)nc3ccccc3c2=O)cc1 (stereo unspecified)
a: 73.1 µM (inactive)

q: Another compound: COC1C(OC(C)=O)CC(=O)OC(C)C/C=C/C=C\C(O)C(C)CC(CC=O)C1OC1OC(C)C(OC2CC(C)(O)C(OC(=O)CC(C)C)C(C)O2)C(N(C)C)C1O (stereo unspecified)
a: > 100 µM (inactive)

* * *

Test system: UACC-257
Experiment: NCI tumour cell line growth inhibition, 48 h
Active and inactive are the calls of the source. Cut-off read from the data, not from the text of the source: active = GI50 up to about 1.1 µM and inactive = higher. Where a SMILES comes first, the peptide text is derived from it. [ ]: non-standard residue; d: D form. The star is where a group is joined. ξ: configuration not given here. ξD = NC(CC(=O)O)C(=O)O; Boc = CC(C)(C)OC(=O)*; Aib = CC(C)(N)C(=O)O; OBn = c1ccc(CO*)cc1
Entries and their GI50 values follow.

q: Which GI50 is reported for this molecule? CC(C)(C)C1=NC(=S)SC2=NC(=O)C3(NN21)c1ccccc1-c1ccccc13
a: > 10 µM (inactive)

q: Another molecule: Cc1cc(=O)nc(Sc2ccc([N+](=O)[O-])cc2[N+](=O)[O-])[nH]1
a: 21.2 µM (inactive)

q: Another molecule: CC1=NOC(=O)/C1=C/c1ccccc1O
a: > 100 µM (inactive)

q: Another molecule: CC(C)(C)OC(=O)NC(CC(=O)OCc1ccccc1)C(=O)NC(C)(C)C(N)=O (stereo not given) (Boc-[ξD](OBn)-[Aib]-NH2)
a: > 100 µM (inactive)

q: Another molecule: COC(=O)C1=COC2OC3C(C(C)O)C(=O)OC34C=CC1C24 (stereo not given)
a: > 100 µM (inactive)

* * *

Entries and their GI50 values follow.
System: HCC 2998
Assay: NCI tumour cell line growth inhibition, 48 h
Calls of active or inactive are those of the source. Rule as the data show it: active = GI50 up to about 1.1 µM and inactive = higher.

q: # value lookup — system HCC 2998, readout GI50, item CC[C@@H]1C[C@H]2CC3c4[nH]c5ccc(O)cc5c4CCN(C2)C31
a: > 100 µM (inactive)

***
q: # value lookup — system HCC 2998, readout GI50, item COC(=O)Nc1nc2cc(Br)ccc2[nH]1
a: 33.6 µM (inactive)

q: Another compound: O=C(NCCc1ccccn1)c1ccc2cc(C(=O)N3CC(CCl)c4ccc([N+](=O)[O-])cc43)[nH]c2c1 (centres undefined)
a: 61.5 µM (inactive)

q: Another compound: CC(C)C[C@H]1[C@@H](OCc2ccccc2)COS(=O)(=O)N1[C@H](C)c1ccccc1
a: > 100 µM (inactive)

q: Another compound: CC(=O)c1sc2c(c1O)c(=O)n(-c1ccccc1)c(=S)n2-c1ccccc1
a: > 100 µM (inactive)

q: Another compound: CCOC(=O)C1=C(C)N(NC(N)=O)C2(N)N(NC(N)=O)C(C)=C(C(=O)OCC)C12C(=O)OCC (centres undefined)
a: > 100 µM (inactive)

q: Another compound: O=C1C=C(NCCc2ccccc2)c2ccccc2C1=O
a: 1.79 µM (inactive)

q: Another compound: O=C(CCc1ccccc1)On1c(-c2ccccc2)nc2ccccc2c1=S
a: 4.52 µM (inactive)

q: Another compound: COc1cc2ccc1NC(=O)N1CCN(CC1)C(=O)Nc1ccc(cc1OC)-c1ccc(c(OC)c1)NC(=O)N1CCN(CC1)C(=O)Nc1ccc-2cc1OC
a: > 100 µM (inactive)

* * *

Tested on: TK-10
Test: NCI tumour cell line growth inhibition, 48 h
Activity calls are given as the source filed them. Rule as the data show it: active = GI50 up to about 1.1 µM and inactive = higher.
Attribute measured: GI50

q: Which GI50 is reported for this compound? C=CCOC(=O)C1CCC(=O)N1C(=O)C(Cl)Cl (stereo not given)
a: > 100 µM (inactive)

q: Another compound: CC(=O)C1C(=O)C(=O)N(c2ccccc2)C1=O (stereo not given)
a: > 100 µM (inactive)

q: Another compound: COc1ccc(-n2cnc3c(NC(C)(C)C(=O)O)ncnc32)cc1
a: > 100 µM (inactive)

q: Another compound: COc1ccc(/N=N/C(=O)NC(CC(C)C)C(=O)NC(Cc2ccccc2)C(=O)O)cc1 (stereo not given)
a: > 100 µM (inactive)

q: Another compound: CCOC(=O)NC(Nc1cccc(C(F)(F)F)c1)(C(F)(F)F)C(F)(F)F
a: > 100 µM (inactive)

Consider the record given below.
q: Which GI50 is reported for this compound? c1ccc(-c2cn3c(nc4ccccc43)c(-c3ccccc3)n2)cc1
a: > 59.6 µM (inactive)

* * *

Tested on: DU-145
Experiment: NCI tumour cell line growth inhibition, 48 h
Active and inactive are the calls of the source. Rule as the data show it: active = GI50 up to about 1.1 µM and inactive = higher. *1 amine or outer side, *2 acyl side, *3 side chain or, on linkers, in order; H or OH if unused. Where a SMILES comes first, the peptide text is derived from it. Bridges are numbered along the chain shown (N, C = ends). Roman numbers before positions name the chains, in order. [ ]: non-standard residue; d: D form. Actinocin(1to9) = Cc1c2oc3c(C)ccc(C(=O)[*:2])c3nc-2c(C(=O)[*:1])c(N)c1=O; NMeY = CN[CH](Cc1ccc(O)cc1)C(=O)O; Sar = CNCC(=O)O
// one of active, inactive, no free text

Consider the following illustrative entries.
q: What did this assay record as the result for Nc1ccc(C(=O)NN2C(=O)[C@H](Cl)C2c2ccc(Cl)cc2)cc1 (stereo partly specified) ?
a: inactive

q: Another molecule: O=S1(=O)OCCOS(=O)(=O)C1Cc1nc2ccccc2[nH]1
a: inactive

q: Another molecule: CCCCCCCC/C=C\CCCCCCCC(=O)OC[C@]1(CO)CCC(=O)O1
a: inactive

***
q: What did this assay record as the result for COc1c(C(=O)/C(=N/Nc2ccc(C(=O)O)cc2)C(C)=O)c(O)cc2occc12 ?
a: inactive

q: Another molecule: COc1ccc(CC2C(=O)OC(C)C(NC(=O)c3c4nc5c(C(=O)NC6C(=O)NC(C(C)C)C(=O)N7CCCC7C(=O)N(C)CC(=O)N(C)C(Cc7ccc(OC)cc7)C(=O)OC6C)ccc(C)c5oc-4c(C)c(=O)c3N)C(=O)NC(C(C)C)C(=O)N3CCCC3C(=O)N(C)CC(=O)N2C)cc1 (stereo unspecified) (I: TVP[Sar][NMeY](Me) / II: TVP[Sar][NMeY](Me); ester I:1-I:C, II:1-II:C; linker I:N-II:N via Actinocin(1to9); configuration not given here)
a: active

q: Another molecule: CCOC(=O)N/N=C/C1=NN(C(=O)OCC)[S+]([O-])C1C (stereo unspecified)
a: inactive
